Source of measurements: patent US20250188040A1

Recorded log10 GI50 values for a group of compounds are listed next.
Tested on: HCT 116 cells
PROTOCOL SUMMARY: Cell growth assay (CellTiter-Glo 2.0), HCT 116 MSI-H cell line
CONDITION CONTEXT: Homo sapiens, HCT-116, 120 h, read-out: Cell Growth Inhibition GI50 HCT-116
Please interpret these as log10 of GI50 where GI50 is in nM.

C[C@@H](/C=C/S(C)(=O)=O)NC(=O)c1cnc(C(C)(C)O)nc1Oc1ccccc1 [Example 218] ... 3.14
CN(C)c1ncc(C(=O)N[C@H](/C=C/S(C)(=O)=O)C2CC2)c(Oc2ccccc2)n1 [Example 177] ... 1.93
C[C@@H](/C=C/S(C)(=O)=O)NC(=O)c1cnc(C2CC3(CC3)C2)nc1Oc1ccccc1 [Example 55] ... 2.18
CC(=O)C=C1CN(C(=O)c2cnc(C(C)(C)C)nc2Oc2ccccc2)C1 [Example 190] ... 2.72
CS(=O)(=O)/C=C/[C@@H](NC(=O)c1cnc(C(F)(F)C2CC2)nc1Oc1ccccc1)C1CCC1 [Example 225] ... 1.23

Input line: Report log10 GI50 under test system HCT 116 cells for C[C@@H](/C=C/S(C)(=O)=O)NC(=O)c1cnc(C2(C)CC2)nc1Oc1ccccc1 [Example 38] .
Output line: 2.20

Input line: Report log10 GI50 under test system HCT 116 cells for CS(=O)(=O)/C=C1/CCN(C(=O)c2cnc(C3CC3)nc2Oc2ccccc2)C1 [Example 26] .
Output line: 4.26

Input line: Report log10 GI50 under test system HCT 116 cells for C[C@@H](/C=C/S(C)(=O)=O)NC(=O)c1cnc(C(F)(F)C(F)(F)F)nc1Oc1ccccc1 [Example 83] .
Output line: 2.31

====

TARGET ENTITY: WRN C727 (Homo sapiens, UniProt Q14191)
Construct: endogenous in cells; host or cells: OCI-AML2
Sequence (Q14191 whole entry): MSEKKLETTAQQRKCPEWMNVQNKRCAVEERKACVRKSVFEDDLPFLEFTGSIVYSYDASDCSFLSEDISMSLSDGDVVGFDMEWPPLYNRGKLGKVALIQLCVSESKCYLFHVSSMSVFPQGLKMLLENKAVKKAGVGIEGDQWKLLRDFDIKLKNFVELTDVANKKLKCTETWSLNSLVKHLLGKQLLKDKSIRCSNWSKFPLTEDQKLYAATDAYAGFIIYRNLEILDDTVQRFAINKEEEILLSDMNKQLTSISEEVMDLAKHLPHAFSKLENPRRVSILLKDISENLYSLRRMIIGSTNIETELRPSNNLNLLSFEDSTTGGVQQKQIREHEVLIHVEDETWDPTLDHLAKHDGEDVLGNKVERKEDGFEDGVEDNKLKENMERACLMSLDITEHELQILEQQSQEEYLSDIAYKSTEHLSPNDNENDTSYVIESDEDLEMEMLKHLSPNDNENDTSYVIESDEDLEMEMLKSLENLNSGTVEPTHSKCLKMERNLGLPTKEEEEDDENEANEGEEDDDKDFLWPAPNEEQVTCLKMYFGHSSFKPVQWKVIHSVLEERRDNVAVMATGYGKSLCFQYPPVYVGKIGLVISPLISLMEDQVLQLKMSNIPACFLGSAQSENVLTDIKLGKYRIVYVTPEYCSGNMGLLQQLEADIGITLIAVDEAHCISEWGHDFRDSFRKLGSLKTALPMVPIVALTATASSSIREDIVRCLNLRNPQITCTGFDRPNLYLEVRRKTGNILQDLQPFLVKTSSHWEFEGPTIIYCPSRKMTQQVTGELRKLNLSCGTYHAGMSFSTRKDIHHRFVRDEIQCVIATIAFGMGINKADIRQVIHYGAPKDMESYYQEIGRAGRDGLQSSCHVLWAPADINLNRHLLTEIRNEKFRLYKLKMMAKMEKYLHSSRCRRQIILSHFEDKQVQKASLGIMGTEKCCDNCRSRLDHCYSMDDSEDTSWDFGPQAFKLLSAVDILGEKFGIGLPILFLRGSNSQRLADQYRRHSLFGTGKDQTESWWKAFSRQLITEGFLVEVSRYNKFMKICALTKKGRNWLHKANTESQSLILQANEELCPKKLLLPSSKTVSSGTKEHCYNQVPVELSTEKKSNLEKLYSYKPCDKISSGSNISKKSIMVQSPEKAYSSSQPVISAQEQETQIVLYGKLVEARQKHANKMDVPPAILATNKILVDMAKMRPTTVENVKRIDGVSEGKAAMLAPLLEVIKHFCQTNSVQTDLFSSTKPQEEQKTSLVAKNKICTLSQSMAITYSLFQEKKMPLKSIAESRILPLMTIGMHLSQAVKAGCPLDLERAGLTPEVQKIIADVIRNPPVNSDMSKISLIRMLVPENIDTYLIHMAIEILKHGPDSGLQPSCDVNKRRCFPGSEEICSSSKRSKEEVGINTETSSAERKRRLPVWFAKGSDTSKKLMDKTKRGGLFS
PROTOCOL SUMMARY: Target engagement, in vitro (lysate), OCI-AML2
Assay type: binding
CONDITION CONTEXT: read-out: OCI-AML2 WRN C727 TE50 in vitro (lysate)
PROPERTY MEASURED: IC50

Consider the reported IC50 for these compounds:
C[C@@H](/C=C/S(C)(=O)=O)NC(=O)c1cnc(C2CCCC2)nc1O[C@H]1CCCC[C@@H]1O (single isomer, unassigned) ... > 100 µM
C[C@@H](/C=C/S(C)(=O)=O)NC(=O)c1cnc(C(C)(C)C)nc1OC1(C#N)CCCC1 ... > 100 µM

Input line: State its IC50 for this compound: `COC[C@H](/C=C/S(C)(=O)=O)NC(=O)c1cnc(C(C)(C)C)nc1Oc1ccccc1`
Output line: > 100 µM

====

System: HCT 116 cells
PROTOCOL SUMMARY: Cell growth assay (CellTiter-Glo 2.0), HCT 116 MSI-H cell line
CONDITION CONTEXT: Homo sapiens, HCT-116, 120 h, read-out: Cell Growth Inhibition GI50 HCT-116
PROPERTY MEASURED: GI50 (nM)
Give the value in nM but do not write nM after it.

Consider the reported GI50 for these molecules:
C[C@@H](/C=C/S(C)(=O)=O)NC(=O)c1ccc(C2CCCC2)cc1Oc1ccccc1 ... 600
CC(F)(F)c1ncc(C(=O)N[C@H](/C=C/S(C)(=O)=O)CC(F)F)c(Oc2ccccc2)n1 ... 326
CC(C)(C)c1ncc(C(=O)N[C@H](/C=C/S(C)(=O)=O)C2CCC(F)(F)CC2)c(Oc2ccccc2)n1 ... 46.7

Input line: State its GI50 for this molecule: `CC(C)Cc1ncc(C(=O)N[C@@H](C)/C=C/S(C)(=O)=O)c(Oc2ccccc2)n1`
Output line: 2470

Input line: State its GI50 for this molecule: `C[C@@H](/C=C/S(C)(=O)=O)NC(=O)c1cnc(NC2CCCC2)nc1Oc1ccccc1`
Output line: 7100

====

Recorded IC50 values for a group of compounds are listed next.
TARGET ENTITY: WRN C727 (Homo sapiens, UniProt Q14191)
Construct: endogenous in cells; host or cells: OCI-AML2
PROTOCOL SUMMARY: Target engagement, in situ (cell), OCI-AML2
Format: cell-based
CONDITION CONTEXT: OCI-AML2 cells, read-out: OCI-AML2 WRN C727 TE50 in situ (cell)
Give the value in µM but do not write µM after it.

Consider the reported IC50 for these compounds:
C[C@@H](/C=C/S(C)(=O)=O)NC(=O)c1cnc(C(C)(C)C)cc1Oc1ccccc1 ... 0.2
N#CC=C1CN(C(=O)c2cnc(C3CC3)nc2Oc2ccccc2)C1 ... 6.65

Read the next record carefully.
Input line: Report IC50 under test system WRN C727 (Homo sapiens, UniProt Q14191) for `C[C@@H](/C=C/S(C)(=O)=O)NC(=O)c1cnc(C2CCCC2)nc1Oc1cc(F)cc(Cl)c1` .
Output line: 8.07

====

Recorded IC50 values for a group of molecules are listed next.
TARGET ENTITY: hWRN(519-1227)_C-H3CV-GFP-10His (Homo sapiens, UniProt Q14191)
Sequence (Q14191 519-1227): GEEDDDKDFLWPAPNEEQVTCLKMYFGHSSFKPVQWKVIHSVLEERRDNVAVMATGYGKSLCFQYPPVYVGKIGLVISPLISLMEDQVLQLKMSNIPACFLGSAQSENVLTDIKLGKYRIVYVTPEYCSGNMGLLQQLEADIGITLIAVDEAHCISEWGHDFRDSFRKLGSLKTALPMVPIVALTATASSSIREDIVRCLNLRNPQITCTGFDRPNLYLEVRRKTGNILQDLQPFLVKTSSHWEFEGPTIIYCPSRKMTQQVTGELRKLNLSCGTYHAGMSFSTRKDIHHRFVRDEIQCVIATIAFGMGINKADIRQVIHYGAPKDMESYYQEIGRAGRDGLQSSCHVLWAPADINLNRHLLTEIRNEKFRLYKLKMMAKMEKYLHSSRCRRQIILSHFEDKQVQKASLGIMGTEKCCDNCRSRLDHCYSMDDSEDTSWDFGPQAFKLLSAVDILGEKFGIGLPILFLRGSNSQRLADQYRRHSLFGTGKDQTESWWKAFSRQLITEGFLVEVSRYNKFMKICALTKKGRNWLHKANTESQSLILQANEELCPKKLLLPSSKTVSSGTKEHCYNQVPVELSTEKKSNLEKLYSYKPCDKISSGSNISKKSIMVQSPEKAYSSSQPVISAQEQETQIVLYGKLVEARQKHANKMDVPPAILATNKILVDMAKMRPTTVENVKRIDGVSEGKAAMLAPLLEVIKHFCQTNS
PROTOCOL SUMMARY: Helicase Assay for WRN Inhibition (ATP-dependent, fluorescence based)
CONDITION CONTEXT: WRN Helicase IC50, 30 min preincubation with ATP, 30 min reaction

Consider the reported IC50 for these molecules:
CCc1ccc(Oc2nc(C3CCCC3)ncc2C(=O)N[C@@H](C)/C=C/S(C)(=O)=O)cc1 ... 82 µM
C[C@@H](/C=C/S(C)(=O)=O)NC(=O)c1cnc(C2CCCC2)nc1O[C@@H]1CCCC[C@H]1O (single isomer, unassigned) ... 30 µM
C[C@@H](/C=C/S(C)(=O)=O)NC(=O)c1cnc(C2CCCC2)nc1Oc1cccnc1 ... 12.5 µM

Read the next record carefully.
Input line: State its IC50 for this molecule: `CC(F)(F)c1ncc(C(=O)N[C@H](/C=C/S(C)(=O)=O)C2CCC(F)(F)CC2)c(Oc2ccccc2)n1`
Output line: 0.6 µM

====

TARGET ENTITY: hWRN(519-1227)_C-H3CV-GFP-10His (Homo sapiens, UniProt Q14191)
PROTOCOL SUMMARY: Helicase Assay for WRN Inhibition (ATP-dependent, fluorescence based)
CONDITION CONTEXT: WRN Helicase IC50, 30 min preincubation with ATP, 30 min reaction
PROPERTY MEASURED: IC50 (µM)
Give the value in µM but do not write µM after it.

Consider the reported IC50 for these molecules:
C[C@@H](/C=C/S(C)(=O)=O)NC(=O)c1cnc(C2CCCCC2)nc1Oc1ccccc1 [Example 77] ... 1.5
CC(C)c1ncc(C(=O)NC/C=C/S(C)(=O)=O)c(Oc2ccccc2)n1 [Example 14] ... 10
CC(F)(F)c1ncc(C(=O)N[C@H](/C=C/S(C)(=O)=O)CC(F)F)c(Oc2ccccc2)n1 [Example 90] ... 0.69
COC(C)(C)c1ncc(C(=O)N[C@@H](C)/C=C/S(C)(=O)=O)c(Oc2ccccc2)n1 [Example 221] ... 8.3
CSc1ncc(C(=O)NC/C=C/S(C)(=O)=O)c(Oc2ccccc2)n1 [Example 241] ... 12

Input line: State its IC50 for this molecule: C=C(C#N)CNC(=O)c1cnc(C(C)(C)C)nc1Oc1ccccc1 [Example 270]
Output line: 0.91

Input line: State its IC50 for this molecule: C=C(CNC(=O)c1cnc(C2CC2)nc1Oc1ccccc1)S(C)(=O)=O [Example 287]
Output line: 8

====

Test system: HCT 116 cells
PROTOCOL SUMMARY: Cell growth assay (CellTiter-Glo 2.0), HCT 116 MSI-H cell line
CONDITION CONTEXT: Homo sapiens, HCT-116, 120 h, read-out: Cell Growth Inhibition GI50 HCT-116
PROPERTY MEASURED: GI50 (µM)
Give the value in µM but do not write µM after it.

C[C@@H](/C=C/S(C)(=O)=O)NC(=O)c1cnc(C23CC(C2)C3)nc1Oc1ccccc1 [Example 222] ... 0.133
CC(C)c1ncc(C(=O)N[C@H](/C=C/S(C)(=O)=O)C2CC2)c(Oc2ccccc2)n1 [Example 16] ... 0.0849
C[C@@H](/C=C/S(C)(=O)=O)NC(=O)c1c(N)nc(C2CCCC2)nc1Oc1ccccc1 [Example 255] ... 0.329
C[C@@H](/C=C/S(C)(=O)=O)NC(=O)c1cnc(C2CCCC2)nc1OC1CCC1 [Example 127] ... 1.3

Input line: Report GI50 under test system HCT 116 cells for CS(=O)(=O)C=CC1CN(C(=O)c2cnc(C3CC3)nc2Oc2ccccc2)C1 (racemic) [Example 22] .
Output line: 2.5

====

Test system: HCT 116 cells
PROTOCOL SUMMARY: Cell growth assay (CellTiter-Glo 2.0), HCT 116 MSI-H cell line
CONDITION CONTEXT: Homo sapiens, HCT-116, 120 h, read-out: Cell Growth Inhibition GI50 HCT-116
Threshold-based label: GI50 under 0.3 µM gives true, GI50 not under 0.3 µM gives false.

CS(=O)(=O)/C=C/CNC(=O)c1cnc(C2CCCC2)nc1Oc1ccccc1 [Example 1] ... false
CN(CC(F)(F)F)c1ncc(C(=O)N[C@H](/C=C/S(C)(=O)=O)C2CC2)c(Oc2ccccc2)n1 [Example 184] ... true
C[C@@H](/C=C/S(C)(=O)=O)NC(=O)c1cnc(C2CC2)nc1OC12CCC(CC1)C2 [Example 143] ... false
CC(F)(F)c1ncc(C(=O)N[C@H](/C=C/S(C)(=O)=O)C2CC2)c(O[C@@H]2C[C@@H]3C[C@@H]3C2)n1 [Example 158] ... false
Cc1cc(C(=O)N[C@@H](C)/C=C/S(C)(=O)=O)c(Oc2ccccc2)nc1C1CCCC1 [Example 262] ... false

Consider the record given below.
Input line: Given the entry CC(C)(C)c1ncc(C(=O)N[C@H](/C=C/S(C)(=O)=O)C2CCC2)c(Oc2ccccc2)n1 [Example 66] , would its reported GI50 be below 0.3 µM?
Output line: true
